Where these numbers come from: patent US20230357398A1

# target or test system: T1, cyCD3e(1-109)_F-chLys_avi (cynomolgus monkey)
# T1 construct: also called cynomolgus monkey CD3 epsilon antigen
# T1 sequence (chain, as listed by the source limits assumed): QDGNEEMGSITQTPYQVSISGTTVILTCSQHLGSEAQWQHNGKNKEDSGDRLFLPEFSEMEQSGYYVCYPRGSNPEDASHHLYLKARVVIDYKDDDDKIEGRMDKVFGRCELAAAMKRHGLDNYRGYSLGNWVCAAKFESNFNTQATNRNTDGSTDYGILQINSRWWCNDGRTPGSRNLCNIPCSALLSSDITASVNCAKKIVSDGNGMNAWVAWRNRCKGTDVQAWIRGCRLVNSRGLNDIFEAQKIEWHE
# assay info: BLI (Octet HTX); FabCys captured on Fab-specific sensor, CD3e antigen as analyte; 1:1 model
# Method: Affinity determination by determining kinetic rate constants was performed on an Octet HTX (FortéBIO, Sartorius AG) instrument as described below. The different Fab-Cys samples diluted in assay buffer (D-PBS, 0.05% (v/v) PS 20, 0.1% (w/v) BSA) were captured onto Fab-specific BLI sensors with a loading level of approx. 0.5 nm. […] The association phase was recorded for 300 s, followed by a dissociation phase of 900 s. […]
readout kind: kon (M⁻¹ s⁻¹)
// return numeric value only (unit: M⁻¹ s⁻¹, not printed)

binder	kon [M⁻¹ s⁻¹]
MAB-16_h_FabCys (Fab, V domains shown, Tagless disulfide-bridged human FabCys produced in HEK293 cells; also called MAB-16 Fab-Cys) VH: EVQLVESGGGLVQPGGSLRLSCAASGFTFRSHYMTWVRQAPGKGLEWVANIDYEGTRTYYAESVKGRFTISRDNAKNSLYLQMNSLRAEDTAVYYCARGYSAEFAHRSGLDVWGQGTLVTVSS VL: QSVLTQPPSASGTPGQRVTISCSGSSSNIGSNYVYWYQQLPGTAPKLLIYRNNQRPSGVPDRFSGSKSGTSASLAISGLRSEDEADYYCAGWDRRLHGAVFGGGTKLTVLG	478000
MAB-12_h_FabCys (Fab, V domains shown, Tagless disulfide-bridged human FabCys produced in HEK293 cells; also called MAB-12 Fab-Cys) VH: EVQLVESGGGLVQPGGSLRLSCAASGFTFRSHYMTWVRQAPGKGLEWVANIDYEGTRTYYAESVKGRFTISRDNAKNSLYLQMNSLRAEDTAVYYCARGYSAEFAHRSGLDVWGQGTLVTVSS VL: QSVLTQPPSASGTPGQRVTISCSGSSSNIGANYVYWYQQLPGTAPKLLIYRNNQRPSGVPDRFSGSKSGTSASLAISGLRSEDEADYYCAAWDRHSHGAVFGGGTKLTVLG	445000

Find the recorded kon belonging to MAB-9_h_FabCys (Fab, V domains shown, Tagless disulfide-bridged human FabCys produced in HEK293 cells; also called MAB-9 Fab-Cys) VH: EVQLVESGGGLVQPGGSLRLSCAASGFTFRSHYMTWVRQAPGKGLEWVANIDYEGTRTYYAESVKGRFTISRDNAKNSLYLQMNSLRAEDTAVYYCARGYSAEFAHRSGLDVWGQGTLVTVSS VL: QSVLTQPPSASGTPGQRVTISCSGSSSNIGINYVYWYQQLPGTAPKLLIYRNNIRPSGVPDRFSGSKSGTSASLAISGLRSEDEADYYCAAWDRHSHGAVFGGGTKLTVLG and report it.
446000
